Cmax listing for selected compounds.
Test: Peak concentration was determined in portal circulation after intraduodenal dose of 10 mg/kg in monkey
Assay type: ADME, organism-based
Design: dose 10 mg/kg, route intraduodenal
Details: simiiformes, in vivo, read-out: Activity
# output: bare number, implied unit ng/mL

Please review the entries below; each comes with its answer.
CC(C)C[C@H](O)[C@H](O)[C@H](CC1CCCCC1)NC(=O)[C@H](Cc1cscn1)NC(=O)[C@H](Cc1ccccc1)CS(=O)(=O)C1CCN(C)CC1 = 550
CC(C)C[C@H](O)[C@H](O)[C@H](CC1CCCCC1)NC(=O)[C@H](Cc1cscn1)NC(=O)[C@@H](CC(=O)N(C)CCc1ccccn1)Cc1ccccc1 = 1200

Asked: Fill blank: measured Cmax of the compound CC(C)C[C@H](O)[C@H](O)[C@H](CC1CCCCC1)NC(=O)[C@H](Cc1cscn1)NC(=O)[C@H](Cc1ccccc1)CS(=O)(=O)N1CCN(C)CC1 is ____.
Given back: 2400

###

Assay: Bioavailability in the systemic circulation after 10 minutes was determined after intraduodenal dose of 10 mg/kg in rat by renin inhibition assay
Format: ADME, organism-based
Conditions: plasma (systemic circulation), read-out: Plasma level
log10(concentration at 10 min) listing for selected compounds.
Log scale reminder: concentration at 10 min in µg/mL, then log10 taken.

Please review the entries below; each comes with its answer.
CC(C)C[C@H](O)[C@H](O)[C@H](CC1CCCCC1)NC(=O)[C@H](Cc1cscn1)NC(=O)[C@@H](CC(=O)N(C)CCc1ccccn1)Cc1ccccc1 = -0.66
CC(C)C[C@H](O)[C@H](O)[C@H](CC1CCCCC1)NC(=O)[C@H](Cc1cscn1)NC(=O)[C@H](Cc1ccccc1)CS(=O)(=O)C(C)(C)C = -1.66
CC(C)C[C@H](O)[C@H](O)[C@H](CC1CCCCC1)NC(=O)[C@H](Cc1cscn1)NC(=O)[C@@H](CC(=O)N(C)CCN(C)C)Cc1ccccc1 = -0.22
COCCOCOCCN(C)C(=O)C[C@@H](Cc1ccccc1)C(=O)N[C@@H](Cc1cscn1)C(=O)N[C@@H](CC1CCCCC1)[C@@H](O)[C@@H](O)CC(C)C = -0.52

Asked: Fill blank: measured log10(concentration at 10 min) of the compound CC(C)C[C@H](O)[C@H](O)[C@H](CC1CCCCC1)NC(=O)[C@H](Cc1cscn1)NC(=O)[C@@H](CC(=O)N(C)CCN1CCN(C)CC1)Cc1ccccc1 is ____.
Given back: -1.10

###

Assay: Integrated area under the plasma drug level-time curve was determined in systemic circulation after intraduodenal dose of 10 mg/kg in monkey
Format: ADME, organism-based
Parameters: dose 10 mg/kg, route intraduodenal
Conditions: simiiformes
Assay Metric: AUC (ng·h/mL)
# output: bare number, implied unit ng·h/mL

CC(C)C[C@H](O)[C@H](O)[C@H](CC1CCCCC1)NC(=O)[C@H](Cc1cscn1)NC(=O)[C@H](Cc1ccccc1)CS(=O)(=O)N1CCN(C)CC1 = 340

Would you kindly look at the next entry?
Asked: Fill blank: measured AUC of the molecule CC(C)C[C@H](O)[C@H](O)[C@H](CC1CCCCC1)NC(=O)[C@H](Cc1cscn1)NC(=O)[C@H](Cc1ccccc1)CS(=O)(=O)C1CCN(C)CC1 is ____.
Given back: 110
